The measured values listed here are drawn from the Human Domainome abundance scans (Beltran et al. 2025).

B1: Histone H1t, residues 44 to 112; numbered along this chain, P22492 (parent)
chain: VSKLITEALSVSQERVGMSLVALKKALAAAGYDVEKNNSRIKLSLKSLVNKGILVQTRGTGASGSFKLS

- Variants of: B1
- Method Description: abundance fitness (aPCA) (normalised: wild type 0, dead -1); higher = more abundant; growth selection in yeast, the domain comes from the species named
- Conditions: Homo sapiens
Measured Attribute: abundance fitness
Just the number, please.

Use these answered entries as a reference point.
> print(dat)
   sequence.change  recorded.value
1             S69E           0.119
2             K25D          -0.158
3             L43G          -0.061
4             G59K           0.001
5             S65K          -0.049
6             K24T          -0.267

Let us examine a further case.
Which value of abundance fitness has been reported for I41L in the records? -0.124
